Recorded MIC for the following molecules
- System: Staphylococcus aureus
- assayInfo: Antibacterial activity against Staphylococcus aureus ATCC 29213 measured after 18 hrs by CLSI based broth microdilution method
- Format: functional
propertyName: MIC (µg/mL)

smilesEntry: CCCCCCNC(=O)C[N+](C)(C)CCCCCOc1ccc2ccc(=O)oc2c1CC=C(C)C.[Br-]
unitSpec: µg/mL
relationOperator: =
valueMeasured: 1

smilesEntry: CCCN(CCC)C(=O)C[N+](C)(C)CCCCCOc1ccc2ccc(=O)oc2c1CC=C(C)C.[Br-]
unitSpec: µg/mL
relationOperator: =
valueMeasured: 8

smilesEntry: CCCCNC(=O)C[N+](C)(C)CCCCCOc1ccc2ccc(=O)oc2c1CC=C(C)C.[Br-]
unitSpec: µg/mL
relationOperator: =
valueMeasured: 8

smilesEntry: CCNC(=O)C[N+](C)(C)CCCCCOc1ccc2ccc(=O)oc2c1CC=C(C)C.[Br-]
unitSpec: µg/mL
relationOperator: =
valueMeasured: 64

smilesEntry: CCCCN(CCCC)C(=O)C[N+](C)(C)CCCCCOc1ccc2ccc(=O)oc2c1CC=C(C)C.[Br-]
unitSpec: µg/mL
relationOperator: =
valueMeasured: 1

smilesEntry: COc1ccc2ccc(=O)oc2c1CC=C(C)C
unitSpec: µg/mL
relationOperator: >
valueMeasured: 64

smilesEntry: CCCCNC(=O)C[N+](C)(C)CCCCOc1ccc2ccc(=O)oc2c1CC=C(C)C.[Br-]
unitSpec: µg/mL
relationOperator: =
valueMeasured: 32

smilesEntry: CC(C)=CCc1c(OCCCC[N+](C)(C)CC(=O)N(C(C)C)C(C)C)ccc2ccc(=O)oc12.[Br-]
unitSpec: µg/mL
relationOperator: =
valueMeasured: 16

smilesEntry: CC(C)=CCc1c(OCCCCC[N+](C)(C)CC(=O)N(CC(C)C)CC(C)C)ccc2ccc(=O)oc12.[Br-]
unitSpec: µg/mL
relationOperator: =
valueMeasured: 2

smilesEntry: CCCCNC(=O)C[N+](C)(C)CCCOc1ccc2ccc(=O)oc2c1CC=C(C)C.[Br-]
unitSpec: µg/mL
relationOperator: =
valueMeasured: 32

smilesEntry: CCCNC(=O)C[N+](C)(C)CCCOc1ccc2ccc(=O)oc2c1CC=C(C)C.[Br-]
unitSpec: µg/mL
relationOperator: =
valueMeasured: 128
